Provide the recorded % inhibition for the entries that follow.
TEST_SYSTEM: T1, recombinant human VEGF165 (human, UniProt P15692-4 27-191)
T1 construct: also called hVEGF165; rhVEGF165
T1 sequence (P15692 other isoform, or with tags, fused parts or gaps limits assumed): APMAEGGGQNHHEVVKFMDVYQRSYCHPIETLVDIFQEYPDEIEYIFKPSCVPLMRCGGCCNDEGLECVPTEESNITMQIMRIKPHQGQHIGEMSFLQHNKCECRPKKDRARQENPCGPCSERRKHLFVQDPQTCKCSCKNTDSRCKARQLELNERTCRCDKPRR
TEST_SUMMARY: VEGF/VEGFR1 competition AlphaScreen
Method: Finally, streptavidin donor beads (20 μg/ml) are added and after 1 hour of incubation in the dark, fluorescence is measured on the Envision microplate reader.
State just the number; it will be interpreted in %.

Lookup: Entry VEGFBII023 (VHH, biparatopic bivalent VHH in one chain; also called VEGFBII23B04-40GS-10E07; VEGFBI023) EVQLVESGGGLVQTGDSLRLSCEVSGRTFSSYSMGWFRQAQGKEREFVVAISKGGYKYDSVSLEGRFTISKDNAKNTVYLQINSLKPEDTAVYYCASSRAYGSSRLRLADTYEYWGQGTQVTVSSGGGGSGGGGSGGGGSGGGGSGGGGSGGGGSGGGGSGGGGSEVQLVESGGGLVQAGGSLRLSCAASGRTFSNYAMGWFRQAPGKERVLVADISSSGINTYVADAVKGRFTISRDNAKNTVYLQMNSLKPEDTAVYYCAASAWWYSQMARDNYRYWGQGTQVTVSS has what % inhibition?
Found: 91

Lookup: // query: VEGFBII021 (VHH, biparatopic bivalent VHH in one chain; also called VEGFBII23B04-40GS-5B05) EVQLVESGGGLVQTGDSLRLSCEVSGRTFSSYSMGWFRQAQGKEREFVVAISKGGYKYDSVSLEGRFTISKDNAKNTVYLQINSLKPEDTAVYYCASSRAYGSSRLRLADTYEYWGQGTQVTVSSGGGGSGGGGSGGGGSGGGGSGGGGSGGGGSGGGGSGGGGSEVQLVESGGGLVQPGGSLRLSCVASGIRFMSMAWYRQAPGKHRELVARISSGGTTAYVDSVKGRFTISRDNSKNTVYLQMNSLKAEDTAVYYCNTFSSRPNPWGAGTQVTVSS
Found: 100
